// provenance: PubChem BioAssay AID493091

# tgt: Carboxy-terminal domain RNA polymerase II polypeptide A small phosphatase 1 (Homo sapiens)
# experimental details: Scp-1 phosphatase inhibitors, primary screen, biochemical, colorimetric, uHTS (AID 493091);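 further: plate controls were DMSO wells with enzyme for no effect and wells lacking enzyme for full effect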
# test context: Recombinant Scp1, phosphopeptide, malachite green phosphate absorbance; at 20 µM
About 3,000 (0.88%) of roughly 340,000 compounds were called active.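 How the source made its calls: active means inhibition above about 50% at 20 µM (limit read from the data); inactive means the rest.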 The sample holds actives, similar compounds and a random draw of the others, so the mix is not that of the screen.
Can you answer with just one of these options? YES (active), NO (inactive)

Solved cases below.
COC(=O)c1ccc(-c2c(-c3ccccc3)ncc3cc(OC)c(OC)cc23)cc1    YES
O=C(C[n+]1cc(Br)cc2ccccc21)c1ccc(F)cc1    NO
O=C(CCC1CCCN(C(=O)Cc2ccc(F)cc2)C1)N1CCN(c2ccccn2)CC1 (configuration not stated)    NO
O=C(CSc1ncn[nH]1)NCc1ccc2c(c1)OCO2    NO

Qu. What did this assay record as the result for "Cc1ccn2c(=O)nc(SCC(=O)NCc3ccc4c(c3)OCO4)nc2c1" ?
Ans. YES

Qu. # iterate: "Cc1ccn2c(=O)nc(SCC(=O)NCc3ccc(F)cc3)nc2c1"
Ans. NO

Qu. Also check Cn1c2c(c(=O)n(C)c1=O)C(c1cccc(F)c1)C(C#N)=C(N)O2 (configuration not stated)
Ans. NO

Qu. O=C(CCC1CCCN(C(=O)c2ccc(F)c(F)c2)C1)N1CCN(c2ccccn2)CC1 (configuration not stated) ?
Ans. NO

Qu. How about "COC(=O)Cc1c(-c2[nH]c3ccccc3c2CC(=O)OC)[nH]c2ccccc12" ?
Ans. NO

Qu. What about this compound? "COC(=O)c1ccc(OC(=O)c2nn(C)cc2Cl)c(OC)c1"
Ans. NO

Qu. Thanks! And "COC(=O)C[n+]1cccc2ccccc21" ?
Ans. YES

Qu. Would you kindly repeat that for COc1ccc(/C(O)=C2/C(=O)C(=O)N(CC3CCCO3)C2c2ccc(OC)c(OC)c2)cc1 (configuration not stated) ?
Ans. NO

---

# tgt: Carboxy-terminal domain RNA polymerase II polypeptide A small phosphatase 1 (Homo sapiens)
# experimental details: Scp-1 phosphatase inhibitors, primary screen, biochemical, colorimetric, uHTS (AID 493091)
# test context: Recombinant Scp1, phosphopeptide, malachite green phosphate absorbance; at 20 µM; stronger effect = higher value
The campaign covered roughly 340,000 compounds. About 3,000 (0.88%) were called active. Shown is part of a subset that was picked to be rich in actives.
property: inhibition (%)
Entry rule: numbers only, all in %.

Reference set (3 entries):
Cc1coc2cc3oc(=O)c(CCC(=O)O)c(C)c3cc12    -1.97
CCC(C)OC(=O)C(C)Oc1ccc(-c2ccccc2)cc1 (configuration not stated)    0.19
O=C(CN1CCN(S(=O)(=O)/C=C/c2ccccc2)CC1)NC(=O)NCc1ccco1    52.3

Qu. Field: inhibition (Carboxy-terminal domain RNA polymerase II polypeptide A small phosphatase 1 (Homo sapiens)). Entry: "O=C(c1cc(S(=O)(=O)N2CCOCC2)ccc1Cl)N1CCOCC1"
Ans. -9.49

Qu. Now the compound "COc1ccc(OCc2cc(C(=O)NCC3(C)COC3)no2)c(Cl)c1"
Ans. -1.65

---

# tgt: Carboxy-terminal domain RNA polymerase II polypeptide A small phosphatase 1 (Homo sapiens) (UniProt Q9GZU7)
# Sequence (Q9GZU7 76-261 limits assumed): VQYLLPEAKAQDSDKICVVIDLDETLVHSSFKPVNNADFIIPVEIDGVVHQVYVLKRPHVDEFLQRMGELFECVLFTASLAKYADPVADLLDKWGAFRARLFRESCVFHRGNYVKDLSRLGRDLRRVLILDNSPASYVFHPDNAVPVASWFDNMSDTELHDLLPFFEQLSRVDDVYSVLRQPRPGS
# experimental details: Scp-1 phosphatase inhibitors, primary screen, biochemical, colorimetric, uHTS (AID 493091);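 further: plate controls were DMSO wells with enzyme for no effect and wells lacking enzyme for full effect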
# test context: Recombinant Scp1, phosphopeptide, malachite green phosphate absorbance; at 20 µM; stronger effect = higher value
Screen size: about 340,000 compounds; about 3,000 (0.88%) were called active. The sample as a whole holds a higher share of actives than the screen did.
property: inhibition (%)
Respond numerically; units are % and should not be typed.

Example compounds with recorded inhibition:
COc1ccccc1CNC(=O)c1ccc(CS(=O)(=O)c2ccccc2)o1    -4.06
Cc1ccc(/C=C/C(=O)Nc2ccc([N+](=O)[O-])c(NC(=O)/C=C/c3ccc(C)o3)c2)o1    53.2
O=C(NCc1cccc(Cl)c1)C1CCN(c2nnc(N3CCCC3=O)s2)CC1    -6.55

Qu. Form field: reported inhibition of "COc1ccc(OC)c(NC(=O)CSc2nc(N)c(-c3ccccc3)c(=O)[nH]2)c1"
Ans. 3.19

Qu. Same thing, different compound: "O=C(c1ccc(S(=O)(=O)NCc2ccco2)cc1)N1CCN(c2ccccc2)CC1"
Ans. 22.5

Qu. Then what about the compound "CCNc1ccc(C(=O)OCC(=O)N2c3ccccc3NC(=O)C2(C)C)cc1[N+](=O)[O-]" ?
Ans. -9.83

Qu. Now consider "COc1ccc(C(=O)N(Cc2ccccc2)c2ccc(C)cc2)cc1S(=O)(=O)N1CCOCC1" .
Ans. -6.19

Qu. Entry to check: "Cc1ccc(/C=C/C(=O)Nc2cc(S(=O)(=O)N3CCCCCC3)ccc2OCC(F)(F)F)o1"
Ans. -9.11

---

# tgt: Carboxy-terminal domain RNA polymerase II polypeptide A small phosphatase 1 (Homo sapiens) (UniProt Q9GZU7)
# experimental details: Scp-1 phosphatase inhibitors, primary screen, biochemical, colorimetric, uHTS (AID 493091);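 further: plate controls were DMSO wells with enzyme for no effect and wells lacking enzyme for full effect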
# test context: Recombinant Scp1, phosphopeptide, malachite green phosphate absorbance; at 20 µM
In all, about 340,000 compounds went through this assay and about 3,000 (0.88%) were called active.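 The calls were made as follows: active = inhibition above about 50% at 20 µM (limit read from the data); inactive = the rest.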 The full list was thinned out, with actives kept by preference.
Write down the outcome that applies. Available outcomes: active, inactive

Worked examples follow.
CC1C(=O)NC(=O)C1c1ccccc1 (stereo not drawn)    inactive
OC1CSc2nc3ccccc3n2C1 (stereo not drawn)    inactive
CSc1ccc(C#N)cc1NC(=O)c1cccc(Cl)c1    inactive
COc1ccc(CNS(=O)(=O)c2cc(-c3cc(C)no3)ccc2C(C)C)cc1    inactive
CSc1ccc(/C=N/NC(=O)c2cccc(Cl)c2)cc1    active
COc1ccc(C2=Nc3cc(C)ccc3OC2)cc1    inactive
Cc1ccc(NC(=O)CN2C(=O)NC(C)(c3ccc(Cl)cc3)C2=O)c(Br)c1 (stereo not drawn)    inactive
CC(=O)OCCC(C)C    inactive
O=C(CCNC(=O)c1ccccc1Cl)NN=Cc1ccco1    inactive
COc1ccc(OCC(=O)NNC(=O)C2CCC2)cc1    inactive

Qu. Fill in: this test's call for "COc1ccc(NC(=O)c2ccco2)cc1NC(=O)c1ccc(C#N)cc1F" is ___
Ans. inactive

Qu. Repeat for the following compound: "O=C(CCNC(=O)c1ccccc1)NN=Cc1ccc(Br)o1"
Ans. active

Qu. Another compound to look at: "C=CCn1cnc2scc(-c3ccccc3)c2c1=O"
Ans. inactive

Qu. And then Cc1ccc(C2(C)NC(=O)N(CC(=O)N3CC(=O)Nc4ccccc43)C2=O)cc1 (stereo not drawn) , what is it?
Ans. inactive

Qu. Thanks! And "O=C(Nc1cccnc1)c1cc2cc(Br)ccc2oc1=O" ?
Ans. active

Qu. One more compound: NC(=O)c1nsc(C(=O)N(CCCN2CCOCC2)C(C(=O)NC2CCCCC2)c2ccc(Cl)cc2)c1N (stereo not drawn)
Ans. inactive

Qu. And what about the compound "COc1ccc(S(=O)(=O)N2CCN(CC(=O)N3CCOCC3)CC2)cc1OC" ?
Ans. inactive

Qu. Then this compound: NNC(=O)C1CC(O)CN1S(=O)(=O)c1ccc(Cl)cc1 (stereo not drawn)
Ans. inactive

---

# tgt: Carboxy-terminal domain RNA polymerase II polypeptide A small phosphatase 1 (Homo sapiens) (UniProt Q9GZU7)
# experimental details: Scp-1 phosphatase inhibitors, primary screen, biochemical, colorimetric, uHTS (AID 493091);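 further: plate controls were DMSO wells with enzyme for no effect and wells lacking enzyme for full effect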
# test context: Recombinant Scp1, phosphopeptide, malachite green phosphate absorbance; at 20 µM; stronger effect = higher value
The whole screen tested about 340,000 compounds, of which about 3,000 (0.88%) were called active. Only a selection was taken, and actives are over-represented in it overall.
Measured inhibition by item
Write down the numeric answer in % and omit the unit.

Below, 5 compounds whose answers are already recorded.
O=C(COC(=O)c1cnccn1)Nc1cccc2ccccc12    -9.56
Cc1cc(/C=C2\SC(=O)N(C)C2=O)c(C)n1-c1cccc(C(=O)O)c1    54.7
Cc1cc(/C=C2\SC(=Nc3ccc(N4CCOCC4)cc3)N(C)C2=O)c(C)n1-c1cccnc1    -4.38
COc1ccc(Cl)cc1NC(=O)CCS(=O)(=O)c1ccc(Br)cc1    94.5
Cc1cc(/C=C2/SC(=O)N(CC(=O)N3CCCC3)C2=O)c(C)n1C    -10.3

Qu. What value of inhibition has been reported for the following compound? "CC(=O)N1CCN(C(=O)c2cc(-c3ccc(C)o3)nc3ccccc23)CC1"
Ans. -8.9

Qu. "CCNc1nc(NC(C)C)nc(OCCOC(=O)c2ccccc2)n1" ?
Ans. 2.19

Qu. Another compound to look at: "C[C@H](CO)N1C[C@H](C)[C@@H](CN(C)C(=O)Nc2ccc3c(c2)OCO3)Oc2c(cccc2N(C)C)C1=O"
Ans. 38.7

Qu. Same for CC1C(=O)N2CCCc3cc(S(=O)(=O)NCc4ccc(F)cc4)cc1c32 (stereo not drawn)
Ans. -5.8
